Tested on: Staphylococcus epidermidis
assay info: Antimicrobial activity against Staphylococcus epidermidis ATCC 12228 by conventional agar-dilution method
Format: functional
Some molecules, each annotated with its measured MIC.
assay metric: MIC (µg/mL)

> print(dat)
                                   molecule  unit.descriptor  numeric.value
1  CC(=O)NC[C@H]1CN(c2ccc(N3CCOCC3)c(F)c2)C(=O)O1 [LINEZOLID]            µg/mL          0.781
2  CC(=O)NC[C@H]1CN(c2ccc(N3CCNCC3)c(F)c2)C(=O)O1            µg/mL           6.25
3  CC(=O)NC[C@H]1CN(c2ccc(N3CCN(c4nnc(-c5ccc([N+](=O)[O-])o5)s4)CC3)c(F)c2)C(=O)O1            µg/mL          0.006
4  CC(=O)NC[C@H]1CN(c2ccc(N3CCN(c4nnc(-c5ccc([N+](=O)[O-])s5)s4)CC3)c(F)c2)C(=O)O1            µg/mL          0.024
5  CC(=O)NC[C@H]1CN(c2ccc(N3CCN(c4nnc(-c5ncc([N+](=O)[O-])n5C)s4)CC3)c(F)c2)C(=O)O1            µg/mL          0.024
6  O=C(O)c1cn(C2CC2)c2cc(N3CCNCC3)c(F)cc2c1=O [CIPROFLOXACIN]            µg/mL          0.391

----------
Test system: Bacillus subtilis
assay info: Antimicrobial activity against Bacillus subtilis PTCC 1023 by conventional agar-dilution method
Type: functional
Attribute: MIC
assay metric: MIC (µg/mL)

> print(dat)
                                   molecule  assay.metric  unit.descriptor  numeric.value
1  CC(=O)NC[C@H]1CN(c2ccc(N3CCNCC3)c(F)c2)C(=O)O1           MIC            µg/mL           12.5
2  CC(=O)NC[C@H]1CN(c2ccc(N3CCN(c4nnc(-c5ncc([N+](=O)[O-])n5C)s4)CC3)c(F)c2)C(=O)O1           MIC            µg/mL          0.098
3  CC(=O)NC[C@H]1CN(c2ccc(N3CCN(c4nnc(-c5ccc([N+](=O)[O-])s5)s4)CC3)c(F)c2)C(=O)O1           MIC            µg/mL          0.781
4  CC(=O)NC[C@H]1CN(c2ccc(N3CCOCC3)c(F)c2)C(=O)O1 [LINEZOLID]           MIC            µg/mL          0.391
5  O=C(O)c1cn(C2CC2)c2cc(N3CCNCC3)c(F)cc2c1=O [CIPROFLOXACIN]           MIC            µg/mL          0.195
6  CC(=O)NC[C@H]1CN(c2ccc(N3CCN(c4nnc(-c5ccc([N+](=O)[O-])o5)s4)CC3)c(F)c2)C(=O)O1           MIC            µg/mL          0.391

----------
Entries and their measured MIC follow.
System: Staphylococcus warneri
assay info: Antimicrobial activity against Staphylococcus warneri ATCC 27836 by conventional agar-dilution method
Type: functional
assay metric: MIC (µg/mL)

> print(dat)
                                   compound  unit.descriptor  numeric.value
1  CC(=O)NC[C@H]1CN(c2ccc(N3CCN(c4nnc(-c5ccc([N+](=O)[O-])o5)s4)CC3)c(F)c2)C(=O)O1            µg/mL          0.006
2  CC(=O)NC[C@H]1CN(c2ccc(N3CCOCC3)c(F)c2)C(=O)O1 [LINEZOLID]            µg/mL          0.781
3  O=C(O)c1cn(C2CC2)c2cc(N3CCNCC3)c(F)cc2c1=O [CIPROFLOXACIN]            µg/mL          0.195
4  CC(=O)NC[C@H]1CN(c2ccc(N3CCN(c4nnc(-c5ccc([N+](=O)[O-])s5)s4)CC3)c(F)c2)C(=O)O1            µg/mL          0.049
5  CC(=O)NC[C@H]1CN(c2ccc(N3CCN(c4nnc(-c5ncc([N+](=O)[O-])n5C)s4)CC3)c(F)c2)C(=O)O1            µg/mL          0.006
6  CC(=O)NC[C@H]1CN(c2ccc(N3CCNCC3)c(F)c2)C(=O)O1            µg/mL             18

----------
Collected MIC values appear next to each entry.
System: Staphylococcus xylosus
assay info: Antimicrobial activity against Staphylococcus xylosus ATCC 2997 by conventional agar-dilution method
Format: functional
assay metric: MIC (µg/mL)

> print(dat)
                                smiles.repr  assay.metric  numeric.value
1  CC(=O)NC[C@H]1CN(c2ccc(N3CCOCC3)c(F)c2)C(=O)O1           MIC          0.781
2  O=C(O)c1cn(C2CC2)c2cc(N3CCNCC3)c(F)cc2c1=O           MIC          0.391
3  CC(=O)NC[C@H]1CN(c2ccc(N3CCN(c4nnc(-c5ccc([N+](=O)[O-])s5)s4)CC3)c(F)c2)C(=O)O1           MIC          0.098
4  CC(=O)NC[C@H]1CN(c2ccc(N3CCN(c4nnc(-c5ccc([N+](=O)[O-])o5)s4)CC3)c(F)c2)C(=O)O1           MIC          0.024
5  CC(=O)NC[C@H]1CN(c2ccc(N3CCN(c4nnc(-c5ncc([N+](=O)[O-])n5C)s4)CC3)c(F)c2)C(=O)O1           MIC          0.049
6  CC(=O)NC[C@H]1CN(c2ccc(N3CCNCC3)c(F)c2)C(=O)O1           MIC           3.12

----------
Test system: Corynebacterium glutamicum
assay info: Antimicrobial activity against Corynebacterium glutamicum ATCC 13032 by conventional agar-dilution method
Assay type: functional
Overview of reported log10 MIC across a group of molecules:
assay metric: log10 MIC (log10 of the value in µg/mL)

> print(dat)
                                smiles.repr            target.or.system  assay.metric  numeric.value
1  CC(=O)NC[C@H]1CN(c2ccc(N3CCN(c4nnc(-c5ccc([N+](=O)[O-])s5)s4)CC3)c(F)c2)C(=O)O1  Corynebacterium glutamicum     log10 MIC           0.80
2  CC(=O)NC[C@H]1CN(c2ccc(N3CCOCC3)c(F)c2)C(=O)O1  Corynebacterium glutamicum     log10 MIC          -0.11
3  O=C(O)c1cn(C2CC2)c2cc(N3CCNCC3)c(F)cc2c1=O  Corynebacterium glutamicum     log10 MIC          -0.41
4  CC(=O)NC[C@H]1CN(c2ccc(N3CCN(c4nnc(-c5ncc([N+](=O)[O-])n5C)s4)CC3)c(F)c2)C(=O)O1  Corynebacterium glutamicum     log10 MIC          -0.71
5  CC(=O)NC[C@H]1CN(c2ccc(N3CCNCC3)c(F)c2)C(=O)O1  Corynebacterium glutamicum     log10 MIC           0.19
6  CC(=O)NC[C@H]1CN(c2ccc(N3CCN(c4nnc(-c5ccc([N+](=O)[O-])o5)s4)CC3)c(F)c2)C(=O)O1  Corynebacterium glutamicum     log10 MIC          -0.71

Origin of the recorded values: ChEMBL document CHEMBL1649349
